Examples of molecules with documented inhibition follow.
# Test system: Leucine-rich repeat serine/threonine-protein kinase 2 (Homo sapiens), Q5S007 [G2019S]
# Sequence (Q5S007 whole entry G2019S): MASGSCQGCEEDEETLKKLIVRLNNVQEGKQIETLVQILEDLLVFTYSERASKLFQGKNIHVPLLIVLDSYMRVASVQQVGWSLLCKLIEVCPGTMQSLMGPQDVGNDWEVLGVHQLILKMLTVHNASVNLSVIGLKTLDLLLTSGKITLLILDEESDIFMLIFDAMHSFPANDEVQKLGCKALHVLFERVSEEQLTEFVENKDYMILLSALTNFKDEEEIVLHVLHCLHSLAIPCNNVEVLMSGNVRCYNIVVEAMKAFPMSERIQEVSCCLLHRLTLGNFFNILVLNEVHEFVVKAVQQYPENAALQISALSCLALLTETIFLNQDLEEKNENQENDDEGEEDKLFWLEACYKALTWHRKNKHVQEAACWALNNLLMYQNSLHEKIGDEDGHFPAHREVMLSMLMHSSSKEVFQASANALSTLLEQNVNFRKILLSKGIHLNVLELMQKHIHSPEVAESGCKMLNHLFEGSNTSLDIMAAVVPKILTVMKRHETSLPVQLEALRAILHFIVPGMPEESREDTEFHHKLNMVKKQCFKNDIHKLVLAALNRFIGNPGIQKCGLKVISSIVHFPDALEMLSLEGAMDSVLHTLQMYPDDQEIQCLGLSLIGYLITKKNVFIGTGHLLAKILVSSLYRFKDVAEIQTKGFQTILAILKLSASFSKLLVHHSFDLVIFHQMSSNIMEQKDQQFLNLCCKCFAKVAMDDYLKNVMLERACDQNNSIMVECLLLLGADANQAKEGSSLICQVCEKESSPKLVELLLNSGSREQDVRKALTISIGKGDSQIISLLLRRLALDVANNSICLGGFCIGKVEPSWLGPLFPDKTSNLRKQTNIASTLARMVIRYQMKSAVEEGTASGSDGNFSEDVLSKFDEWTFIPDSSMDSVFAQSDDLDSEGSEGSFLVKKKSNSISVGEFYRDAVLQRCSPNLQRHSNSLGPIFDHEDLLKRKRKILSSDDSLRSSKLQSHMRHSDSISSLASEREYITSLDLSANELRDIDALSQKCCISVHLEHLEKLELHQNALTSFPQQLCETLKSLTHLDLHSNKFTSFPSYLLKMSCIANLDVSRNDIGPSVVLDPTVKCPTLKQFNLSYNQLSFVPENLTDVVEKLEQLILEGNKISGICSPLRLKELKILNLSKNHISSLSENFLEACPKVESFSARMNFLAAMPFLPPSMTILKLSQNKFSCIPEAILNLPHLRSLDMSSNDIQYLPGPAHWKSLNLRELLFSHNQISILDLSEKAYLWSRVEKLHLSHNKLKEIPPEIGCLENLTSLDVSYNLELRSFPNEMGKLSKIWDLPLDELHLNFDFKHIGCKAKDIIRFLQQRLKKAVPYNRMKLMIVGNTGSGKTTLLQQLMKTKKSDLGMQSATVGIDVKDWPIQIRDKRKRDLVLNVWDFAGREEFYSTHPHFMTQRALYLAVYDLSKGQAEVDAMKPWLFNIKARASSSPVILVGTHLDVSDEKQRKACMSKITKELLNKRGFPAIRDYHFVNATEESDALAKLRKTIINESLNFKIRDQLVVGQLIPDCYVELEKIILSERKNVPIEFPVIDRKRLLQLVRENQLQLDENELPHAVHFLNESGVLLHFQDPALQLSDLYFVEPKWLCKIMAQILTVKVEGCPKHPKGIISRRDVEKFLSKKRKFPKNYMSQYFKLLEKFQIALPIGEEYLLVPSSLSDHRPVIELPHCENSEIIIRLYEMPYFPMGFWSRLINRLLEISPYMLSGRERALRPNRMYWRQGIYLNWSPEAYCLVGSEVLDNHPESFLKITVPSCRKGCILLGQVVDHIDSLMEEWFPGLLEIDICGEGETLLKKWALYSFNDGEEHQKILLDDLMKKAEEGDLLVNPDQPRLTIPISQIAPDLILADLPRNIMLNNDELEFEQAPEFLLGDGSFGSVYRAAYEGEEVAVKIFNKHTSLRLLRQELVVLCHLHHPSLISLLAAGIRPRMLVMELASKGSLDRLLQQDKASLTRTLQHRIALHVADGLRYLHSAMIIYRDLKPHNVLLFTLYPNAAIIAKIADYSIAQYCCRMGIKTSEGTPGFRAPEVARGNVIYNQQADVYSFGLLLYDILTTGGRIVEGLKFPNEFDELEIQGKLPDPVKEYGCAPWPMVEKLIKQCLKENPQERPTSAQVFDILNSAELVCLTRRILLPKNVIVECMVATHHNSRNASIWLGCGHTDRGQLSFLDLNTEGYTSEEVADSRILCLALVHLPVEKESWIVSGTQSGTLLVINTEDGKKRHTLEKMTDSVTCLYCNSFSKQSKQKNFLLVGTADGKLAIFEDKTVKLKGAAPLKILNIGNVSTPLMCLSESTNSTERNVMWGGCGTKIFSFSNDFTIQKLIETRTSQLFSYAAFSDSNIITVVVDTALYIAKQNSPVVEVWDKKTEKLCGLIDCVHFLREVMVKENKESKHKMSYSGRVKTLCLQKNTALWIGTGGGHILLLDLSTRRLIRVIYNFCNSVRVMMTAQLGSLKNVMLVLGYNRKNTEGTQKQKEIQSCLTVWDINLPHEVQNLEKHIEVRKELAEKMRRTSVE
# Particulars: at 0.1 µM
Metric: inhibition (%)

{"Molecule": "COc1cccc(-n2nc(C)c3c(N/N=C(\\C)c4ccncc4)ncnc32)c1", "Quantitative Readout": 2.88}
{"Molecule": "O=S(=O)(CCOCc1ccc(-c2ccc3ncnc(Nc4ccc(OCc5cccc(F)c5)c(Cl)c4)c3c2)o1)c1ccccc1", "Quantitative Readout": 6.55}
{"Molecule": "O=C(Nc1ccc(Oc2ccc3[nH]c(NC(=O)c4ccco4)nc3c2)cc1)Nc1cc(C(F)(F)F)ccc1F", "Quantitative Readout": 9.87}
{"Molecule": "CN(C)CCCn1c(-c2nonc2N)nc2cnccc21", "Quantitative Readout": 2.04}
{"Molecule": "CCCN1CCCC(c2ccc(Nc3nc(Nc4cc(F)ccc4C(N)=O)c4cc[nH]c4n3)c(OC)c2)C1 (stereo not given)", "Quantitative Readout": 80.5}
{"Molecule": "NS(=O)(=O)c1ccc(-c2cc3ccncc3cc2OCc2ccccc2)cc1", "Quantitative Readout": 1.82}
{"Molecule": "OCc1ccc(-c2nc(-c3ccccn3)c(-c3ccc4c(c3)OCO4)[nH]2)cc1", "Quantitative Readout": 5.62}
{"Molecule": "Cc1ccc2c(-c3ccnc(Nc4cccc(C(F)(F)F)c4)n3)c(-c3ccccc3)nn2n1", "Quantitative Readout": 2.59}
{"Molecule": "COc1ccc2ncnc(Nc3ccc(OCc4ccccc4)cc3)c2c1", "Quantitative Readout": 2.19}
{"Molecule": "CCn1c(-c2nonc2N)nc2ccc(F)cc21", "Quantitative Readout": 4.92}
